assay: Cytotoxicity against human THP1 cells at 50 ug/ml by MTT assay; type: cell-based; conditions: THP-1 cells, read-out: INH
readout-type: cytotoxicity at 50 ug/ml (%)
Could you give me the number in %? Just the number is fine.

Before answering, review these 2 worked examples.
>  <structure-as-smiles>
COc1ccc(-c2csc(N/N=C/c3ccc(-n4ccnc4)cc3)n2)cc1

>  <cytotoxicity at 50 ug/ml (%)>
26.8

$$$$
>  <structure-as-smiles>
Cc1ccc(-c2csc(N/N=C/c3ccc(-n4ccnc4)cc3)n2)cc1

>  <cytotoxicity at 50 ug/ml (%)>
36

$$$$

// moving on: another record for cytotoxicity at 50 ug/ml
Incoming: Give its cytotoxicity at 50 ug/ml value. Item: `Brc1ccc(-c2csc(N/N=C/c3ccc(-n4cncn4)cc3)n2)cc1`
Outgoing: 32.6

Values compiled from ChEMBL document CHEMBL3232798.
